Every entry's value here was drawn from PubChem BioAssay AID1159580.

Experiment: chemical genetic growth profiling, strain panel (AID 1159580);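 further: tested at 20 µM; growth read once vehicle control cultures reached saturation at 30 °C; 1 = growth at the plate median or of vehicle wells; lower values mean less growth of the strain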
Settings: S. cerevisiae deletion strains, growth OD, locus YHR082C, strain KSP1, hits give low values
About 2,000 (36%) of roughly 5,500 compounds were called active. Inconclusive results (about 18%) are left out. The list shows a part of the results.
The following compounds are shown together with reported normalized growth values.
Give your answer as a number; write no unit.

Compound	normalized growth
CNC(=O)n1nc(C)c(Cc2csc3ccc(Cl)cc23)c1C	0.936
O=S(=O)(Nc1ccc(Oc2ccc(OC(F)(F)F)cc2)cc1)c1cccc(Cl)c1	0.978
COc1cc(CC/C(C)=N/O)ccc1OCc1ccc(Cl)cc1Cl	1.02

Write down normalized growth measured for item COc1ccc(C(=O)NCc2csc3ccc(Cl)cc23)cc1OC
1.05

Write down normalized growth measured for item Cc1ccc(N2C(=O)CSC2c2ccc(Cl)c(Cl)c2)cc1Cl (centres undefined)
1.07

* * *

The following molecules are shown together with reported normalized growth values.
Experiment: chemical genetic growth profiling, strain panel (AID 1159580);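 further: tested at 20 µM; growth read once vehicle control cultures reached saturation at 30 °C; 1 = growth at the plate median or of vehicle wells; lower values mean less growth of the strain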
Conditions: S. cerevisiae deletion strains, growth OD, locus YNL071W, strain lat1, hits give low values
Hit rate of the full screen: of about 5,500 compounds, about 2,000 (36%) were called active. Another 18% or so got no clear call; they are omitted. Some of the results follow.

As a guide, the following entries are already answered.
Molecule	normalized growth
Nc1ccn(C2O[C@H](CO)[C@@H](O)[C@H]2O)c(=O)n1 (stereo partly specified)	0.983 (inactive)
CCOC(=O)[C@H](CCc1ccccc1)N[C@@H](C)C(=O)N1Cc2ccccc2C[C@H]1C(=O)O	0.998 (inactive)
Cc1cc(C)cc(OCC2CNC(=O)O2)c1 (stereo unspecified)	0.983 (inactive)

Write down normalized growth measured for item CN(CCC(N)CC(=O)N[C@H]1C=CC(n2ccc(N)nc2=O)O[C@@H]1C(=O)O)C(=N)N (stereo partly specified)
0.89 (active)

Write down normalized growth measured for item Cc1nc2ccccn2c(=O)c1CCN1CCC(C(=O)c2ccc(F)cc2)CC1
0.993 (inactive)

Write down normalized growth measured for item COc1c2ccoc2nc2c(OC)c(OCC(O)C(C)(C)O)ccc12 (stereo unspecified)
1.02 (inactive)

Write down normalized growth measured for item NCC(CC(=O)O)c1ccc(Cl)cc1 (stereo unspecified)
0.991 (inactive)

* * *

Assay: chemical genetic growth profiling, strain panel (AID 1159580);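 further: tested at 20 µM; growth read once vehicle control cultures reached saturation at 30 °C; 1 = growth at the plate median or of vehicle wells; lower values mean less growth of the strain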
Details: S. cerevisiae deletion strains, growth OD, locus YDL101C, strain DUN1
The whole screen tested about 5,500 compounds, of which about 2,000 (36%) were called active. Another 18% or so got no clear call; they are omitted. No stated cut-off is given here; in the data, active means normalized growth mostly below about 0.91 (no sharp cut-off); inconclusive means no clear call, values can overlap the other calls; inactive means mostly above about 0.92. The list shows a part of the results.
Assign a class; possible classes are active, inactive

Below, 5 molecules whose answers are already recorded.
Molecule	Class Assignment
COC(=O)c1c(C)cc(OC(=O)c2c(C)cc(O)c(C=O)c2O)c(C)c1O	inactive
CC(=O)O[C@H]1CC[C@]2(C)C3C(=O)[C@@H](OC(C)=O)[C@@]4(C)C(C[C@@H]5O[C@]6(CCC(C)CO6)[C@@H](C)[C@@H]54)C3CC[C@H]2C1 (stereo not given in full)	inactive
Cc1cccc(Nc2ccncc2S(=O)(=O)NC(=O)NC(C)C)c1	inactive
COc1c(Cl)ccc(Cl)c1C(=O)O	inactive
CC1(C)c2ccccc2N(CCC(N)=O)C12C=Cc1c(ccc3ccccc13)O2 (stereo not given)	inactive

Attention now turns to another entry.
Kindly provide the recorded test outcome for the following molecule: CSC(=NC(=O)c1c(Cl)cccc1Cl)SC
active
